Origin of values: patent US20230212304A1

system: T1, recombinant human CTLA4 protein with human IgG1 Fc tag at the C-terminus (Acro biosystems, Cat#CT4-H5255) (human, UniProt P16410 37-162)
T1 construct: bought protein; also called human CTLA4-Fc; CTLA4-Fc; not shown: human IgG1 Fc tag at the C-terminus
T1 sequence (looked up): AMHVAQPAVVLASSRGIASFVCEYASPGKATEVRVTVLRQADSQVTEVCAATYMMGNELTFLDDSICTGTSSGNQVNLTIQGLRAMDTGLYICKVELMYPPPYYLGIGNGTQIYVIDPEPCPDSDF
test summary: capture ELISA (plate coated with goat anti-human IgG F(ab')2 per paragraph 181), biotin human CTLA4-Fc, streptavidin-HRP, OD(450-630)
Method: Plates were washed once with wash buffer (PBS+0.05% v/v Tween-20, PBST) and then blocked with 200 µl/well blocking buffer (PBST with 5% w/v non-fatty milk) for 2 hours at 37° C. […] The reaction was stopped in 15 minutes at room temperature with 50 µl/well 1M H₂SO₄, and the absorbance of the each well was read on a microplate reader using dual wavelength mode with 450 nm for TMB and 630 nm as the reference wavelength, then the OD (450-630) values were plotted against antibody concentration. […]
recorded endpoint: EC50 (nM)
Hi! Could you send only the number? It should be in nM, unit omitted.

Solved entries (count: 2):
binder: huD1D5-V9 (antibody, human IgG4 S228P, kappa, V domains shown, humanized IgG4/kappa; cell supernatant on Octet, purified antibody in Biacore, ELISA, FACS and the functional assay; also called hu CTLA4 D1D5-V9; huDID5-V9) VH: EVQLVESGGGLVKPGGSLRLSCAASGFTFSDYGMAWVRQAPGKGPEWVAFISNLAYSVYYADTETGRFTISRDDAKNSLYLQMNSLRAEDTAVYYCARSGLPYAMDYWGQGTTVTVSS VL: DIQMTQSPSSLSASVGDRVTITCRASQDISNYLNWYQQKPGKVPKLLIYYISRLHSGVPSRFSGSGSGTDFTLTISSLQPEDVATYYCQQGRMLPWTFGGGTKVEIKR
unit of measure: nM
value observed: 0.516
--
binder: mouse anti-CTLA4 monoclonal antibody D1D5 (antibody, V domains shown, mouse mAb purified from hybridoma supernatant) VH: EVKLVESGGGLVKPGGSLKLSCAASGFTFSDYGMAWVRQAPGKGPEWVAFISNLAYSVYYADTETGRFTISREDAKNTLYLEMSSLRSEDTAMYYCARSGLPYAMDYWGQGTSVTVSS VL: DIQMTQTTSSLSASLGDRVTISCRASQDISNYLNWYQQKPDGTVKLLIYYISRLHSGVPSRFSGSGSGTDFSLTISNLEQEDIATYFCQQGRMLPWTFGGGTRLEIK
unit of measure: nM
value observed: 0.778

Now let's try a different one.
Q: Tell me the measured EC50 of mouse anti-CTLA4 monoclonal antibody C1D1 (antibody, V domains shown, mouse mAb purified from hybridoma supernatant) VH: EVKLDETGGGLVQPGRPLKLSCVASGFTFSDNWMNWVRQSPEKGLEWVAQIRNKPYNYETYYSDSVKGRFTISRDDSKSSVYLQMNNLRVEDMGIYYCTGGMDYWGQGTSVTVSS VL: DIQMTQSPASLSASVGETVTITCGASEIIYGALNWYQQKQGKSPQLLIYGATNLADGMSSRFSGSGSGRQYSLKISSLHPDDAATYYCQKILSPPPWTFGGGTKLEIK , please.
A: 0.121
